Taken from patent US20240294635A1.

- Target Or System: CD47 on the red cell surface (Homo sapiens (Human), UniProt Q08722 19-323)
- Test Name: flow cytometry on fixed red cells, antibody 10 µg/mL
Measured Quantity: MFI (MFI)
Field format: number, assumed MFI, no unit text.

In the examples that follow, each entry is paired with its recorded MFI.
Binder	Endpoint Result
Xi14A9 (antibody, human IgG4 S228P, kappa, V domains shown, mouse variable regions on human IgG4 (EU S228P) and human kappa constant regions; also called chimeric 14A9 antibody) VH: EVQLQQSGAEVARPGASVKLSCTVSGFNIEDDYIEWVKQRPEQGLEWIGRIDPANDKTKYAPKFQDKATITGDTSSNTAYLQLSSLTSEDTAVYYCTRPGLRRYYSMDYWGQGTSVTVSS VL: NIVLTQSPKSMSMSVGERVTLSCKASENVVSYVSWYQQKPEQSPKLLIYGASNRYTGVPDRFIGSGSSTDFTLIISSFQPEDLADYHCGQSYSYPLTFGAGTKLELKR	32800
Xi2H8 (antibody, human IgG4 S228P, kappa, V domains shown, mouse variable regions on human IgG4 (EU S228P) and human kappa constant regions; also called chimeric 2H8 antibody) VH: QVQLKESGPGLVAPSQSLSITCTVSGFSLTNYGVHWVRQPPGKGLEWLGIIWAGGSTNYNSALMSRLSISKDNSKSQVFLKMNSLQTDDTAMYYCARDDYASMDYWGQGTSVTVSS VL: DAFMTQTPLSLPVSLGDQASISCRSSQSLVHSNGNTYLHWYLQKPGQSPKLLIYKVSNRFSGVPDRFSGSGSGTDFTLKISRVEAEDLGVYFCSQSTHVPYTLGGGTKLEIKR	5300

Below: the item to evaluate.
Lab note: measured MFI of Xi3F10 (antibody, human IgG4 S228P, kappa, V domains shown, mouse variable regions on human IgG4 (EU S228P) and human kappa constant regions; also called chimeric 3F10 antibody) VH: EVQLQQSVAELMKPGASVKIYCKATGYTFSRYWIEWVKQRPGHGLEWIGEFIPGSDTTNFNEKFKGKATFTAEISSNTAYMQLSSLTSEDSAVYFCARGGLRRMDYWGQGTSVTVSS VL: DIVMTQTPAIMSASPGEKVTMTCRASSSVSSTYLHWYQQKSGASPKLWIYTTSTLASGVPARFSGSGSGTSYSLTISSVEAEDAATYYCQQFSDSTWTFGGGTKLEIKR was 61800
